# assay_method_text: Turbidity, derived count rate of scattered light
# Type: physicochemical
# measurement_context: turbidity, Log10 of derived count rate of scattered light; Figure 3A source data
endpoint_name: Log10 Count Rate
Please give only the number in your answer, with no unit.

Q: Entry under review: NMWQKIKQII . Reported Log10 Count Rate?
A: 2.992

Q: // lookup Log10 Count Rate for QCKIKIQI
A: 4.094

Q: Please look up its Log10 Count Rate: CKAKAQA
A: 2.56

Q: Consider the substance CEIEIQINM and give its measured Log10 Count Rate.
A: 1.767

Q: Consider the substance CKAKAQANM and give its measured Log10 Count Rate.
A: 2.317

Q: Name the recorded Log10 Count Rate for EFEFQF .
A: 2.608

Q: Give the measured Log10 Count Rate of RGDKIKIQINMC .
A: 3.147

Q: # lookup: Log10 Count Rate of KIKIQIII
A: 1.978

Now consider the entry below.
Q: Need Log10 Count Rate, item CRFRVPF
A: 1.869

====

FTIR ß-sheet content/ % reference
# assay_method_text: β-sheet content by ATR-FT-IR
# Type: physicochemical
# measurement_context: ATR-FT-IR
Field: numeric (%). Do not append units.

Q: Returns the measured FTIR ß-sheet content/ % for the input substance. Input: CKIKQIINM [BL1]
A: 46

Q: Reported FTIR ß-sheet content/ %, substance QCKFKQFF [CK12] : ____
A: 0

Q: Returns the measured FTIR ß-sheet content/ % for the input substance. Input: HHHHKIKIQINMYYYY [TM16]
A: 46.73

Q: What value of measured FTIR ß-sheet content/ % is listed for KFKFQF [JJA6] ?
A: 46

Q: Data request, read-out FTIR ß-sheet content/ %, for KIKIKIKIYYYY [JR7]
A: 0

Further cases:
Q: FTIR ß-sheet content/ % for KFKFQFW [TM71] ?
A: 0

====

# Type: physicochemical
# measurement_context: Fig S10 panel E
endpoint_name: ThT Cat.

Q: # query: ThT Cat. of entry CKFKFQFW
A: 0 (ThT-inactive (N-Fold <2))

Q: Item under review: KIKQIINMWQ . Reported ThT Cat.?
A: 1 (ThT. Cat is 1, if Rel. ThT >2)

Q: Name the recorded ThT Cat. for CKFKQFF .
A: 0 (ThT-inactive (N-Fold <2))

***
Q: Using the record for KIKIQINM , report its ThT Cat..
A: 0 (ThT-inactive (N-Fold <2))

Q: Recorded ThT Cat. for CSISIQINM , please?
A: 1 (ThT. Cat is 1, if Rel. ThT >2)

====

# assay_method_text: Turbidity, derived count rate of scattered light
# Type: physicochemical
# measurement_context: derived count rate of scattered light
endpoint_name: Zeta Count Rate / kcps (kcps)
Your answer should be a plain number; it is taken to be in kcps.

The examples below pair each entry with its known result.
Q: Record request: Zeta Count Rate / kcps value, item QCKIKQIINM [CK5]
A: 20551.06667

Q: Return reported Zeta Count Rate / kcps; argument: KIKIQIC [TM112 / CN11]
A: 980.7

Q: Look at this substance and give its reported Zeta Count Rate / kcps. KVKVQVV [TG2]
A: 27.73

Further cases:
Q: Look up Zeta Count Rate / kcps for this substance: RGDCKFKFQF [TM64/ CN15]
A: 1338

Q: Data request, read-out Zeta Count Rate / kcps, for CKFKQFFNM [CK14]
A: 27264.3

Q: Return reported Zeta Count Rate / kcps; argument: KYKYQY [KB1]
A: 31.53

Q: What value of Zeta Count Rate / kcps has been recorded for this entry: CKFKQFFNMWQ [CK13]
A: 8210

Q: Reported Zeta Count Rate / kcps for KLKLQLL [TG4 / (KM2)] : what is it?
A: 72.67

Q: Zeta Count Rate / kcps lookup needed for KIKIKIQI [TG13] , thanks.
A: 999.1

Q: Would you mind telling me what Zeta Count Rate / kcps value was observed for KVKVKVQV [JG14 / TG14] ?
A: 94.37

Q: Would you mind telling me what Zeta Count Rate / kcps value was observed for QCKIKQII [CK6] ?
A: 301

Q: Field request: Zeta Count Rate / kcps | item: CKIKQIINM [BL1]
A: 9058

====

Here, each record is paired with measured Zeta-pot. / mV data.
# assay_method_text: Zeta-potential measurement
# Type: physicochemical
# measurement_context: zeta potential of peptide; Fig S15 source data
# include the unit after the value

Example substances with recorded Zeta-pot. / mV:
Q: For the substance shown here, CEFEFQF [KB12] , give the reported Zeta-pot. / mV.
A: -13.7 mV

Q: Query: Zeta-pot. / mV; subject: KIKIKIKIYYYY [JR7]
A: 13.3 mV

// switching to the query substance
Q: Report Zeta-pot. / mV for QCKIKQIINMWQ [reference compound] please.
A: 6.643 mV

====

# System: HIV-1 infection of TZM-bl cells
# assay_method_text: HIV-1 infectivity enhancement assay, β-galactosidase luminescence
# Format: cell-based
# measurement_context: Fig. S7 panel A (plotted against β-sheet content); Log10 infection relative to EF-C, TZM-bl cells; asymmetric std dev errors
The substances listed here are annotated with their Log Infectivity.
Number only, please.

Would you please look over these solved cases?
Q: Name the recorded Log Infectivity for CEIEIQI .
A: -1.554

Q: Would you kindly share the measured Log Infectivity for KKFQKKFQ ?
A: -1.545

Q: Could you share which Log Infectivity value was measured for KIKIKIKI ?
A: -1.487

Q: What Log Infectivity value was documented for this substance, KYKYQY ?
A: -1.9887

Q: // returns reported Log Infectivity for input KVKVKVQV
A: -1.763

Now for a further substance.
Q: Reported Log Infectivity for KLKQLL : what is it?
A: -2.131

====

# assay_method_text: Zeta-potential measurement
# Format: physicochemical
# measurement_context: mean, Std Zeta in next column
endpoint_name: Zeta Pot. / mV
State the result as a value with its unit after it.

Q: Would you mind telling me what Zeta Pot. / mV value was observed for CKIKQIINMWQ [MG5a / CK17] ?
A: 13.4 mV

Q: For CEFEFQFNMWQ [TM140] , what is its reported Zeta Pot. / mV?
A: -34.23 mV

Q: Zeta Pot. / mV lookup needed for KIKIKIQI [TG13] , thanks.
A: 6.97 mV

Q: What does the record list as Zeta Pot. / mV for CKFKQFFNM [CK14] ?
A: 15.2 mV

Q: Recorded Zeta Pot. / mV for RGDCKIKIQINM [TM45] , please?
A: 11.3 mV

Q: What Zeta Pot. / mV value was documented for this substance, QCKAKAQANMWQ [CK22] ?
A: -8.05 mV

Q: // returns reported Zeta Pot. / mV for input CKAKAQA [TM155]
A: -8.01 mV

Q: Name the reported Zeta Pot. / mV value associated with the substance KAKAQA [JJA2 / TM153]
A: -14.08 mV

In the following, a different substance is considered.
Q: Would you mind telling me what Zeta Pot. / mV value was observed for QCKFKFQF [CK9] ?
A: 12.2 mV

====

# assay_method_text: Zeta-potential measurement
# Type: physicochemical
# measurement_context: zeta-potential of peptide; source data of Figure 2C
endpoint_name: Zeta-Potential / mV

Consider the worked cases shown below.
Q: Which value of Zeta-Potential / mV has been reported for RGDKIKIQI in the records?
A: 2.829 mV

Q: // Zeta-Potential / mV lookup, key: HRRHFRHKITKKK
A: -4.964 mV

Q: What measured Zeta-Potential / mV goes with QCKFKFQFNM ?
A: 16.1 mV

Q: Which Zeta-Potential / mV is listed for HHHHKIKIKIKIYYYY ?
A: 12.88 mV

Others:
Q: Look up Zeta-Potential / mV: KIKIQIAMWQ
A: 13.33 mV

Q: State the recorded Zeta-Potential / mV for this entry: HHHHKIKIQINMYYYY
A: 7.147 mV

====

# Test system: TZM-bl cells
# Format: cell-based
# measurement_context: CellTiter-Glo, peptide 0.26 µM, mean of n = 3 replicates
Define the label as 1 (yes) when viability 0.26 µM is strictly less than 100 and as 0 (no) in all remaining cases.

Some solved entries appear below for comparison.
Q: Input CKIKIQIII [AR0 / F19] ; condition: viability 0.26 µM strictly below 100. Does it hold?
A: 0 (no)

Q: Determine if CHLHLQL [CN9] shows viability 0.26 µM strictly lower than 100.
A: 0 (no)

Q: Please determine if KIKIQINM [JGB2] is below 100 in terms of viability 0.26 µM.
A: 0 (no)

More entries:
Q: API: query returns whether the substance falls strictly under 100 in viability 0.26 µM. Query: KIKQIINM [JGA2]
A: 0 (no)

Q: Item HHHHKIKIQINMYYYY [TM16] : viability 0.26 µM beneath 100, strictly?
A: 0 (no)

Q: Find out if reported viability 0.26 µM for QCKIKIQINM [CK2] is less than 100
A: 0 (no)

Q: Confirm or reject: viability 0.26 µM of CRFRFQF [CN10] lies strictly below 100
A: 1 (yes)

Q: Hello, I'm reviewing records and need to know if viability 0.26 µM of QCKFKFQFNMWQ [CK7] is below 100. Could you check?
A: 0 (no)

Q: Confirm or reject: viability 0.26 µM of RGDCKFKFQF [TM64/ CN15] lies strictly below 100
A: 0 (no)

Q: Consider QCKIKIQI [CK3] . Does its viability 0.26 µM lie strictly below 100?
A: 1 (yes)

Q: viability 0.26 µM strictly < 100 for this substance? RGECKFKFQF [CN16]
A: 0 (no)

Q: A record lists RGEKIKIQINM [CN18] . Is its viability 0.26 µM below 100?
A: 1 (yes)

Q: API: query returns whether the substance falls strictly under 100 in viability 0.26 µM. Query: CKIKQIINM [BL1]
A: 0 (no)

Q: viability 0.26 µM under 100? Item: KIKIKIQINMWQ [VH9]
A: 0 (no)

Q: Criterion: viability 0.26 µM strictly below 100. Is it met by CKIKQIINMWQ [MG5a / CK17] ?
A: 0 (no)
